Stearic acid (C18:0) by entry:
Test system: Wistar (Crl:WI(Han)) rats
protocol_details: Mass spectrometry-based plasma metabolite profiling of rats treated with known inducers of thyroid function impairment
Type: in vivo, rat
condition_context: male rats, mh28 (study day 28), ratio of group medians vs controls, Table 4
Write the value as a bare number.

The cases that follow already have their Stearic acid (C18:0) on record.
# compound, observed_value
data = [
    ("Cc1cccc(C)c1N(Cn1cccn1)C(=O)CCl [Metazachlor]", 2.59),
    ("CCC1(c2ccccc2)C(=O)NC(=O)NC1=O [Phenobarbital sodium]", 1.09),
    ("Cn1cc[nH]c1=S [Methimazole]", 1.16),
]

Now for another entry.
Report Stearic acid (C18:0) for CCC(CC)Nc1c([N+](=O)[O-])cc(C)c(C)c1[N+](=O)[O-] [Pendimethalin] please.
2.12
